Here the recorded relative viability is given for each entry.
system: LK-2; test: relative viability (nuclei count vs DMSO), 5 days (fraction); higher = more cells survive; conditions: first compound 1 µM

Compound | Tgt | relative viability
CCN(CC)CCCCNc1ncc2cc(-c3cc(OC)cc(OC)c3)c(NC(=O)NC(C)(C)C)nc2n1 + CS(=O)(=O)N1CCN(Cc2cc3nc(-c4cccc5[nH]ncc45)nc(N4CCOCC4)c3s2)CC1 [Pictilisib] (partner 1 µM) | LK-2 | 0.263
CCN(CC)CCCCNc1ncc2cc(-c3cc(OC)cc(OC)c3)c(NC(=O)NC(C)(C)C)nc2n1 + Cc1cc(Nc2cc(N3CCN(C)CC3)nc(Sc3ccc(NC(=O)C4CC4)cc3)n2)n[nH]1 [Tozasertib] (partner 0.1 µM) | LK-2 | 0.159
CCN(CC)CCCCNc1ncc2cc(-c3cc(OC)cc(OC)c3)c(NC(=O)NC(C)(C)C)nc2n1 + CCNC(=O)c1noc(-c2cc(C(C)C)c(O)cc2O)c1-c1ccc(CN2CCOCC2)cc1 [Luminespib] (partner 0.01 µM) | LK-2 | 0.184
CCN(CC)CCCCNc1ncc2cc(-c3cc(OC)cc(OC)c3)c(NC(=O)NC(C)(C)C)nc2n1 + Cc1nc(NC(=O)N2CCC[C@H]2C(N)=O)sc1-c1ccnc(C(C)(C)C(F)(F)F)c1 [Alpelisib] (partner 2 µM) | LK-2 | 0.301
O=c1cc(N2CCOCC2)oc2c(-c3cccc4c3sc3ccccc34)cccc12 + NC(=O)Nc1cc(-c2cccc(F)c2)sc1C(=O)N[C@H]1CCCNC1 [AZD7762] (partner 0.2 µM) | LK-2 | 0.354
O=c1cc(N2CCOCC2)oc2c(-c3cccc4c3sc3ccccc34)cccc12 + CS(=O)(=O)N1CCN(Cc2cc3nc(-c4cccc5[nH]ncc45)nc(N4CCOCC4)c3s2)CC1 [Pictilisib] (partner 1 µM) | LK-2 | 0.64
O=c1cc(N2CCOCC2)oc2c(-c3cccc4c3sc3ccccc34)cccc12 + C[C@]1(O)C[C@@H](c2nc(-c3ccc4ccc(-c5ccccc5)nc4c3)c3c(N)nccn32)C1 [Linsitinib] (partner 1 µM) | LK-2 | 0.69
CCN(CC)CCCCNc1ncc2cc(-c3cc(OC)cc(OC)c3)c(NC(=O)NC(C)(C)C)nc2n1 + CC(=O)c1c(C)c2cnc(Nc3ccc(N4CCNCC4)cn3)nc2n(C2CCCC2)c1=O [Palbociclib] (partner 0.5 µM) | LK-2 | 0.156
O=c1cc(N2CCOCC2)oc2c(-c3cccc4c3sc3ccccc34)cccc12 + CC(=O)c1c(C)c2cnc(Nc3ccc(N4CCNCC4)cn3)nc2n(C2CCCC2)c1=O [Palbociclib] (partner 0.5 µM) | LK-2 | 0.77
O=c1cc(N2CCOCC2)oc2c(-c3cccc4c3sc3ccccc34)cccc12 + CC(=O)Nc1cccc(-n2c(=O)n(C3CC3)c(=O)c3c(Nc4ccc(I)cc4F)n(C)c(=O)c(C)c32)c1 [Trametinib] (partner 0.02 µM) | LK-2 | 0.902
CCN(CC)CCCCNc1ncc2cc(-c3cc(OC)cc(OC)c3)c(NC(=O)NC(C)(C)C)nc2n1 + CC1(C)CCC(c2ccc(Cl)cc2)=C(CN2CCN(c3ccc(C(=O)NS(=O)(=O)c4ccc(N[C@H](CCN5CCOCC5)CSc5ccccc5)c(S(=O)(=O)C(F)(F)F)c4)cc3)CC2)C1 [Navitoclax] (partner 0.5 µM) | LK-2 | 0.36
